- protocol-details: chemical genetic growth profiling, strain panel (AID 1159580);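 also: tested at 20 µM; growth read once vehicle control cultures reached saturation at 30 °C; 1 = growth at the plate median or of vehicle wells; lower values mean less growth of the strain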
- settings: S. cerevisiae deletion strains, growth OD, locus YNR049C, strain mso1
Out of some 5,500 compounds screened, about 2,000 (36%) were called active. About 18% were inconclusive and are not listed. Rule as the data show it: active = normalized growth mostly below about 0.91 (no sharp cut-off); inconclusive = no clear call, values can overlap the other calls; inactive = mostly above about 0.92. Some of the results follow.
Hi there, use one of these labels in your reply, thanks! active, inactive

| compound | label-value |
| --- | --- |
| Cc1cc(=O)oc2c(O)c(O)ccc12 | inactive |

What classification did COC(=O)CCCOc1ccc(Cl)cc1Cl end up with in this test? inactive

* * *

- protocol-details: chemical genetic growth profiling, strain panel (AID 1159580)
- settings: S. cerevisiae deletion strains, growth OD, locus YLR320W, strain mms22
The campaign covered roughly 5,500 compounds. About 2,000 (36%) were called active. Another 18% or so got no clear call; they are omitted. No stated cut-off is given here; in the data, active means normalized growth mostly below about 0.91 (no sharp cut-off); inconclusive means no clear call, values can overlap the other calls; inactive means mostly above about 0.92. The list shows a part of the results.
Hi there, use one of these labels in your reply, thanks! active, inactive

| compound | label-value |
| --- | --- |
| CCN(CC)CCOC(=O)C(c1ccccc1)c1ccccc1 | inactive |
| OC[C@H]1OC([S-])[C@H](O)[C@@H](O)[C@@H]1O.[Au+] (stereo not given in full) | inactive |
| Nc1ccncc1 | inactive |
| CCCC(C(=O)OCCN(CC)CC)(c1ccccc1)c1ccccc1 | inactive |
| C[C@@H]1CC2C3CCC4=CC(=O)C=C[C@]4(C)[C@@]3(F)[C@@H](O)C[C@]2(C)[C@H]1C(=O)CO (stereo not given in full) | inactive |

What classification did COc1cc([C@H]2Oc3cc([C@H]4Oc5cc(O)cc(O)c5C(=O)[C@@H]4O)ccc3O[C@@H]2CO)ccc1O end up with in this test? inactive

What classification did Nc1cc(-c2ccncc2)c[nH]c1=O end up with in this test? active

What classification did O=c1cc(-c2ccccc2)oc2cc(O)c(O)c(O)c12 end up with in this test? active

What classification did COc1cc([C@@H]2c3cc4c(cc3[C@H](OC(C)=O)[C@H]3COC(=O)[C@@H]23)OCO4)cc(OC)c1OC end up with in this test? inactive

What classification did C[C@]12C=CC(=O)C=C1CCC1C3C[C@@H](O)[C@](O)(C(=O)CO)[C@@]3(C)C[C@H](O)[C@@]12F (stereo not given in full) end up with in this test? inactive

* * *

Attribute: normalized growth
- protocol-details: chemical genetic growth profiling, strain panel (AID 1159580);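 also: tested at 20 µM; growth read once vehicle control cultures reached saturation at 30 °C; 1 = growth at the plate median or of vehicle wells; lower values mean less growth of the strain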
- settings: S. cerevisiae deletion strains, growth OD, locus YDR335W, strain msn5, hits give low values
Among all 5,500 compounds or so, about 2,000 (36%) were called active. Roughly 18% stayed inconclusive and do not appear here. Some of the results follow.
Give a plain numeric answer without units written out.

Sample answers from the record:
| molecule | experimental-value |
| --- | --- |
| CCC(=O)Nc1ccc(Cl)c(Cl)c1 | 0.988 |
| O=c1cc(-c2ccc(O)cc2)oc2cc(O)cc(O)c12 | 0.996 |
| CO[C@]12C[C@@H](COC(=O)c3cncc(Br)c3)CN(C)[C@@H]1Cc1cn(C)c3cccc2c13 | 0.986 |
| N[C@H](Cc1ccccc1)C(=O)O | 0.994 |
| NS(=O)(=O)c1cc2c(cc1Cl)NC(C1CC3C=CC1C3)NS2(=O)=O (stereo unspecified) | 0.991 |
| CC(=O)OCC(=O)[C@@]1(O)[C@H](OC(C)=O)CC2C3CCC4=CC(=O)C=C[C@]4(C)[C@@]3(F)[C@@H](O)C[C@@]21C (stereo partly specified) | 0.983 |

normalized growth reported for this molecule COc1cc(S(C)=O)ccc1-c1nc2ncccc2[nH]1 (stereo unspecified) : 0.96

normalized growth reported for this molecule NC(Cc1ccc(F)cc1)C(=O)O (stereo unspecified) : 1.02

normalized growth reported for this molecule O=c1cc(-c2ccccc2)oc2cc(O)c(O)cc12 : 0.979

normalized growth reported for this molecule COc1c(Cl)ccc(Cl)c1C(=O)O : 0.985

normalized growth reported for this molecule Cc1cc(=O)oc2c(O)c(O)ccc12 : 0.981

* * *

- protocol-details: chemical genetic growth profiling, strain panel (AID 1159580);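 also: tested at 20 µM; growth read once vehicle control cultures reached saturation at 30 °C; 1 = growth at the plate median or of vehicle wells; lower values mean less growth of the strain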
- settings: S. cerevisiae deletion strains, growth OD, locus YPL106C, strain sse1
Among all 5,500 compounds or so, about 2,000 (36%) were called active. Roughly 18% stayed inconclusive and do not appear here. No stated cut-off is given here; in the data, active means normalized growth mostly below about 0.91 (no sharp cut-off); inconclusive means no clear call, values can overlap the other calls; inactive means mostly above about 0.92. The list shows a part of the results.
Hi there, use one of these labels in your reply, thanks! active, inactive

As a guide, the following entries are already answered.
| compound | label-value |
| --- | --- |
| C[C@@H]1CC2C3CCC4=CC(=O)C=C[C@]4(C)[C@@]3(F)[C@@H](O)C[C@]2(C)[C@H]1C(=O)CO (stereo partly specified) | inactive |
| CC(=O)N=c1sc(S(N)(=O)=O)nn1C | inactive |
| CC(=O)OCC(=O)[C@@]1(O)[C@H](OC(C)=O)CC2C3CCC4=CC(=O)C=C[C@]4(C)[C@@]3(F)[C@@H](O)C[C@@]21C (stereo partly specified) | inactive |

What classification did O=C(O)c1ccccc1C(=O)Nc1ccc(S(=O)(=O)Nc2nccs2)cc1 end up with in this test? inactive

What classification did C=C1C2CC[C@@]3(C)[C@H](c4ccoc4)OC(=O)C[C@]13O[C@H]1CC(O)C(C)(C)C(CC(=O)OC)[C@@]21C (stereo partly specified) end up with in this test? inactive

What classification did C[C@@H]1CC2C3C[C@H](F)C4=CC(=O)C=C[C@]4(C)[C@@]3(F)[C@@H](O)C[C@]2(C)[C@@]1(O)C(=O)COC(=O)C(C)(C)C (stereo partly specified) end up with in this test? inactive

What classification did C/C=C/C(=O)N(CC)c1ccccc1C end up with in this test? inactive

What classification did COc1cc(C)c(C(=O)Oc2cc(C)c(C(=O)O)c(O)c2C)c(OC)c1C end up with in this test? inactive

What classification did NCC(CC(=O)O)c1ccc(Cl)cc1 (stereo unspecified) end up with in this test? inactive

What classification did CNC(=O)Oc1ccc2c(c1)[C@]1(C)CCN(C)[C@@H]1N2C end up with in this test? inactive

What classification did CN(CCC(N)CC(=O)N[C@H]1C=CC(n2ccc(N)nc2=O)O[C@@H]1C(=O)O)C(=N)N (stereo partly specified) end up with in this test? active

What classification did CN(C)CCOC(=O)C(c1ccccc1)C1(O)CCCC1 (stereo unspecified) end up with in this test? inactive

What classification did CCCC(CCC)C(=O)O end up with in this test? inactive

What classification did CC1CCC2(OC1)OC1CC3C4CCC5C[C@@H](O)CCC5(C)C4=CCC3(C)C1[C@@H]2C (stereo partly specified) end up with in this test? inactive

What classification did C=C1C2CC[C@@]3(C)[C@H](c4ccoc4)OC(=O)C[C@]13O[C@H]1CC(=O)C(C)(C)C(CC(=O)OC)[C@@]21C (stereo partly specified) end up with in this test? inactive

What classification did CCN(CC)CCOC(=O)C(c1ccccc1)c1ccccc1 end up with in this test? inactive

* * *

- protocol-details: chemical genetic growth profiling, strain panel (AID 1159580);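 also: tested at 20 µM; growth read once vehicle control cultures reached saturation at 30 °C; 1 = growth at the plate median or of vehicle wells; lower values mean less growth of the strain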
- settings: S. cerevisiae deletion strains, growth OD, locus YBR279W, strain paf1, hits give low values
The whole screen tested about 5,500 compounds, of which about 2,000 (36%) were called active. Another 18% or so got no clear call; they are omitted. The list shows a part of the results.
quantity: normalized growth
Give a plain numeric answer without units written out.

Sample answers from the record:
| compound | quantity | experimental-value |
| --- | --- | --- |
| O=c1[nH]cnc2[nH]ncc12 | normalized growth | 1 |
| CC(=O)Nc1nnc(S(N)(=O)=O)s1 | normalized growth | 1.01 |
| COC(=O)CCC(C)C1CCC2C3CC[C@@H]4C[C@H](O)CC[C@]4(C)C3C[C@H](O)[C@]12C (some centres not stated) | normalized growth | 0.996 |
| Cc1cc(=O)oc2c(O)c(O)ccc12 | normalized growth | 0.973 |
| O=c1cc(-c2ccccc2)oc2cc(O)c(O)c(O)c12 | normalized growth | 0.574 |
| CC(C)CCCC(C)C1CCC2C3CC[C@H]4CCCC[C@]4(C)C3CC[C@]12C (some centres not stated) | normalized growth | 1.02 |
| CC(CCC(=O)O)[C@H]1CCC2C3CC[C@@H]4CCCC[C@]4(C)C3CC[C@@]21C (some centres not stated) | normalized growth | 1.01 |
| CC[C@H](CCC(C)[C@H]1CCC2C3CCC4C[C@@H](O)CC[C@]4(C)C3CC[C@@]21C)C(C)C (some centres not stated) | normalized growth | 0.983 |

normalized growth reported for this compound c1ccc2nc(N3CCNCC3)ccc2c1 : 1.01

normalized growth reported for this compound CC(=O)N=c1sc(S(N)(=O)=O)nn1C : 1.01

normalized growth reported for this compound CCN(CCCc1ccccc1)CCCc1ccccc1 : 0.983

normalized growth reported for this compound NNCCc1ccccc1 : 1.01
